- Test system: ATP-dependent translocase ABCB1 (Homo sapiens)
- Sequence (P08183 whole entry): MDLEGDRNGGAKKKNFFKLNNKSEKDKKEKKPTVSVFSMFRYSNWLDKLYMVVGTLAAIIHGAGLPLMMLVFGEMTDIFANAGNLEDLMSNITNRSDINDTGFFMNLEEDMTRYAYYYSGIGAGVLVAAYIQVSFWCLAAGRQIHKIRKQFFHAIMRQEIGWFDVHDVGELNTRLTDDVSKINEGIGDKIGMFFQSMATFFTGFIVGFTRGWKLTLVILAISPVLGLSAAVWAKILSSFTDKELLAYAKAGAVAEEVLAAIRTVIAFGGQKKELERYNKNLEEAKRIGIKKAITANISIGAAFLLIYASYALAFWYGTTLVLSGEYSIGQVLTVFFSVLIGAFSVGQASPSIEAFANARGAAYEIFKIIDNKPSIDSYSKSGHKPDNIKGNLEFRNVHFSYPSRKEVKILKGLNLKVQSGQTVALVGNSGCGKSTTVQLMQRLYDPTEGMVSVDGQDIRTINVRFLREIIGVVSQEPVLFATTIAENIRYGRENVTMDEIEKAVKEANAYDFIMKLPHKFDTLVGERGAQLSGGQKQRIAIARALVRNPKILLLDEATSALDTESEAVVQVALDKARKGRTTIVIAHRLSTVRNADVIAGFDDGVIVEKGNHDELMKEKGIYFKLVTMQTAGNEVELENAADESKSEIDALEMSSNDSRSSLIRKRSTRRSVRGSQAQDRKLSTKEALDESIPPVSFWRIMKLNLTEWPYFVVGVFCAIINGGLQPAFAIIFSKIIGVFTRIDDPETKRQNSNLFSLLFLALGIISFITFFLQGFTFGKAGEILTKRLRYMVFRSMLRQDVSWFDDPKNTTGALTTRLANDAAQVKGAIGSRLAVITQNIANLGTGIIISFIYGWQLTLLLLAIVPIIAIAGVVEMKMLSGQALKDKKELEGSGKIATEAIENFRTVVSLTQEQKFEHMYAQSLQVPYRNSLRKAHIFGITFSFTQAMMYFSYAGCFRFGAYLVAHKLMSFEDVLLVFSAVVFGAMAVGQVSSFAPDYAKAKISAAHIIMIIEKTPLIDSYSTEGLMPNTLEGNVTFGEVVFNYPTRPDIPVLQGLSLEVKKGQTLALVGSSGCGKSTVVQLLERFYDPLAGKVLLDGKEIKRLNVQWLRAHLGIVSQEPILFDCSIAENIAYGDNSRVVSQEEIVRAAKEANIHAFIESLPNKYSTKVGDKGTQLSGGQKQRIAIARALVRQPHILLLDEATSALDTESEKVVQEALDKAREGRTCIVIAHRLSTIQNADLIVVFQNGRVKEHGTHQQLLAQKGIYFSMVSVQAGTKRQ
- Protocol description: Inhibition of MDR1 expressed in MDCK cells assessed as calcein AM accumulation by fluorescence assay
Assay readout: pEC50
As a rule, pEC50 stands for the negative log10 of the concentration, concentration in M.

Quick one: pEC50 of N#Cc1no[n+]([O-])c1S(=O)(=O)c1ccccc1 ?
5.13

Then this molecule: CCCCCCCCCCOc1no[n+]([O-])c1S(=O)(=O)c1ccccc1
5.48

Then this molecule: NC(=O)c1no[n+]([O-])c1S(=O)(=O)c1ccccc1
4.30

Then this molecule: CCCCCCCCOc1no[n+]([O-])c1S(=O)(=O)c1ccccc1
5.34

Then this molecule: O=S(=O)(c1ccccc1)c1c(Oc2ccccc2)no[n+]1[O-]
4.69

Then this molecule: CCCCOc1no[n+]([O-])c1S(=O)(=O)c1ccccc1
5.65

Then this molecule: O=[N+]([O-])c1c(-c2ccccc2)n[o+]n1[O-]
4.28

Then this molecule: CCCCCCOc1no[n+]([O-])c1S(=O)(=O)c1ccccc1
5.47

Then this molecule: CCOc1no[n+]([O-])c1S(=O)(=O)c1ccccc1
4.92
